Target: T1, Cynomolgus CD73 on MK-1 cells (cynomolgus, UniProt A0A2K5V5U7 27-549)
T1 construct: whole, on cells; also called MK-1 (cyno)
T1 sequence: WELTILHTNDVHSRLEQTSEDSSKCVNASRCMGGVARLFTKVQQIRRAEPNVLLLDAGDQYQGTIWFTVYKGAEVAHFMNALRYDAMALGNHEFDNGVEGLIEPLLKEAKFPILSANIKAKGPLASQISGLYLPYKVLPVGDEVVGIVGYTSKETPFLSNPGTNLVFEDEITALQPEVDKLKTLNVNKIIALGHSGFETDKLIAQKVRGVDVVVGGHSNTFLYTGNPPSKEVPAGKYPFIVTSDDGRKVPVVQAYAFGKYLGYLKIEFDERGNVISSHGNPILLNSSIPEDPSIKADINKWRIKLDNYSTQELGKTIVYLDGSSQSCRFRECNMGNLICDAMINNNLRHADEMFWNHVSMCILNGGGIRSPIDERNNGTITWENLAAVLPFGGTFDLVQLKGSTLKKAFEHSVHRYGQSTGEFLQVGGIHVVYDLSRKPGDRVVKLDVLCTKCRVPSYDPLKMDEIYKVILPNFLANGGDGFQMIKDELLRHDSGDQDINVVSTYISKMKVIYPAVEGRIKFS
Assay: flow cytometry on cells
pKd: −log10 of the molar value.
Catalogue of pKd values

[
  {
    "binder": "73combo2 (C2+GRVE+HPT) (antibody, V domains shown, IgG1-TM format; also called clone 10 combo2) VH: EVQLLESGGGLVQPGGSLRLSCAASGFTFSSYAYSWVRQAPGKGLEWVSLIWGSWGSTYYADSVKGRFTISRDNSKNTLYLQMNSLRAEDTAVYYCARLGYGRVDEWGRGTLVTVSS VL: QSVLTQPPSASGTPGQRVTISCSGSLSNIGRNPVNWYQQLPGTAPKLLIYLDNLRLGGVPDRFSGSKSGTSASLAISGLQSEDEADYYCATWDDSHPGWTFGGGTKLTVL",
    "pKd": 10.13
  },
  {
    "binder": "C2 (IgG1-TM) (antibody, V domains shown, IgG1-TM format; also called clone 10 C2) VH: EVQLLESGGGLVQPGGSLRLSCAASGFTFSSYAYSWVRQAPGKGLEWVSLIWGSWGSTYYADSVKGRFTISRDNSKNTLYLQMNSLRAEDTAVYYCARLGYSTIDMWGRGTLVTVSS VL: QSVLTQPPSASGTPGQRVTISCSGSLSNIGRNPVNWYQQLPGTAPKLLIYLDNLRLGGVPDRFSGSKSGTSASLAISGLQSEDEADYYCATWDDSLKGWLFGGGTKLTVL",
    "pKd": 9.98
  },
  {
    "binder": "73combo5 (G10+GRVE+HPT) (antibody, V domains shown, IgG1-TM format; also called clone 10 combo5) VH: EVQLLESGGGLVQPGGSLRLSCAASGFTFSSYAYSWVRQAPGKGLEWVSAISGSWGRTYYADSVKGRFTISRDNSKNTLYLQMNSLRAEDTAVYYCARLGYGRVDEWGRGTLVTVSS VL: QSVLTQPPSASGTPGQRVTISCSGSLSNIGRNDVNWYQQLPGTAPKLLIYLNNQRLGGVPDRFSGSKSGTSASLAISGLQSEDEADYYCATWDDSHPGWTFGGGTKLTVL",
    "pKd": 10.11
  },
  {
    "binder": "MEDI9447 (antibody, human IgG1, lambda, V domains shown, Human IgG1-TM (L234F, L235E, P331S), lambda light chain; also called clone 10.3 antibody; 73combo3) VH: EVQLLESGGGLVQPGGSLRLSCAASGFTFSSYAYSWVRQAPGKGLEWVSAISGSGGRTYYADSVKGRFTISRDNSKNTLYLQMNSLRAEDTAVYYCARLGYGRVDEWGRGTLVTVSS VL: QSVLTQPPSASGTPGQRVTISCSGSLSNIGRNPVNWYQQLPGTAPKLLIYLDNLRLSGVPDRFSGSKSGTSASLAISGLQSEDEADYYCATWDDSHPGWTFGGGTKLTVLG",
    "pKd": 10.08
  }
]
